FYI, the data here is from the RNAGym collection of RNA variant scans (doi:10.7554/elife.80360).

B1: Twister Ribozyme (parent)
chain: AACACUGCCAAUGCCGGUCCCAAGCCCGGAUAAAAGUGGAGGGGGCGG

variants of: B1; assay: self-cleavage, relative activity (ratio to wild type); higher = more cleavage; co-transcriptional
I'd be grateful if you could share measured self-cleavage for these entries.
API doc: respond with a numeric literal and nothing else, no unit.

Given the variant AACACUGCCAAUGCCCGUCCCAAGCCCGGAUAAAAGUGGAGGGGGAGG [G16C C46A] , write its reported self-cleavage. 0.693

Please indicate self-cleavage recorded for AACCCUGCCAAUGCCGGUCCCAAGCCCGGAUAAAAGUGGAGGGGGCUG [A4C G47U] 0.121

Given the variant AACACUGCGAAUGCCGGUCCCGAGCCCGGAUAAAAGUGGAGGGGGCGG [C9G A22G] , write its reported self-cleavage. 0.0988

Tell me its self-cleavage given AUCACUGCCAAUGCCGGUCCCAAGCCCGGAUAAAAGUGGAGGGUGCGG [A2U G44U] as the entry. 0.429

Give self-cleavage for the following variant: AACACUGCCAAUGCCCGUCCCAAGACCGGAUAAAAGUGGAGGGGGCGG [G16C C25A] 0.0993

Indicate the recorded self-cleavage value for this variant: AACACUGCCAAUGCCGGUCCCAAGCCAGGAUAAAAGUGGAGCGGGCGG [C27A G42C] 0.139

Give reported self-cleavage value for AACACUGACAAUGCCGGUCCCAAGCCCGGAUAAAAGUGGAGGGGGCAG [C8A G47A] 0.26

Tell me self-cleavage reported for AACACUGCCACUGCCGGUCCCAAGCCCGGAUGAAAGUGGAGGGGGCGG [A11C A32G] 0.788

Quote self-cleavage reported for AACACUGCCAUUGCCGGUCCCAAGCCCGGAUAAAAGUGGGGGGGGCGG [A11U A40G] please. 0.0881

Tell me measured self-cleavage for AACACUACCAAUGCCGGUCCCAAGCCCGGAUAAAAGUGGCGGGGGCGG [G7A A40C] please. 0.132

For the variant AACACUGCCAAUGCCGGUCCCAAGCCCGGAUAAAAGUGGAGGGAACGG [G44A G45A] , report self-cleavage. 0.906

Consider the variant AAUACUGCCGAUGCCGGUCCCAAGCCCGGAUAAAAGUGGAGGGGGCGG [C3U A10G] . State its measured self-cleavage. 0.474

// fetch self-cleavage given entry AACACUGCCAAUGCCGGUCCCAAGCCCGGAUAAAAGUGGAGGGGGCAA [G47A G48A] 1.31

Query self-cleavage for AUCACUGCCAAUGCCGUUCCCAAGCCCGGAUAAAAGUGGAGGGGGCGG [A2U G17U] 0.0826

Name the recorded self-cleavage of the variant listed here: AACACUGCCAAUGCCGGUCCCAAGCCCGGAUAAAAGUGGAGGUGGCGA [G43U G48A] 0.175

Report measured self-cleavage; entry is AACCCUGCCAAUGCCGGUCACAAGCCCGGAUAAAAGUGGAGGGGGCGG [A4C C20A] 0.0653

Please report self-cleavage for the following variant: AACACUGGCAAUGCCGGUCCGAAGCCCGGAUAAAAGUGGAGGGGGCGG [C8G C21G] 0.0605

Return self-cleavage (reported value) for this variant: AACACUGCCAAUGCCGGUCCAAAGCCCGGAUAUAAGUGGAGGGGGCGG [C21A A33U] 0.102

For the variant AACACUGCCAAUGCCGGUCCCAAGCCCGGAUAAAAGUCGAGGGGGAGG [G38C C46A] , report self-cleavage. 0.791

# return recorded self-cleavage for entry AACACUGGCAAUGCCGGUCCCAAGCCCGGAUAAAAGUUGAGGGGGCGG [C8G G38U] 0.158

Please look at this variant and report its self-cleavage: AACACUGCCAAUGUCGGUCCCGAGCCCGGAUAAAAGUGGAGGGGGCGG [C14U A22G] 0.319

Give the reported value of self-cleavage for this record: AACACUGCGAAUGCCGGUCCCAAGCCCGGAUAAAAGUGGACGGGGCGG [C9G G41C] 0.145

Return self-cleavage (reported value) for this variant: AACACUCCCAAUGCCGGUCCUAAGCCCGGAUAAAAGUGGAGGGGGCGG [G7C C21U] 0.0396

Output measured self-cleavage for this item: AACACUGCCAAUGCCGGUCACAAGCCCGGAUAAAAGUGGAGGGCGCGG [C20A G44C] 0.146

State its self-cleavage for this variant: AACACUGCCAAUGCCGGUCCCAAGGCCGGAUAAAAGUGGAUGGGGCGG [C25G G41U] 0.133

Give self-cleavage for GACACUGCCAAUGCCGGUCCCAAGCGCGGAUAAAAGUGGAGGGGGCGG [A1G C26G] 0.334

Dear colleague, please send me the reported self-cleavage for AACACUGCCAAUGCCGGUCCCAGGCCCGGAUAAAAGUGGAGGGGUCGG [A23G G45U] when you can. 0.158

Retrieve self-cleavage measured for AACACUGCGAAUGCCGGUCCCAAGCCCGGAUAAAAGUGGAGGAGGCGG [C9G G43A] and print it. 0.123

Entry AACACAGCCAAUGCCGGUCCCAAGCGCGGAUAAAAGUGGAGGGGGCGG [U6A C26G] needs its self-cleavage filled in; supply it. 0.132

Determine from records and report self-cleavage for AACACUGCCAAUGCCGGUCCCAAGCCCGGGUAAAAGUGGAGGGAGCGG [A30G G44A] 0.85

Indicate its recorded self-cleavage; the variant in question is AACCCUGCCAAUGUCGGUCCCAAGCCCGGAUAAAAGUGGAGGGGGCGG [A4C C14U] 0.257

Check the records and state self-cleavage for AACACUGCCAAUGCCGGUCUCAAGCCCGGAUAAAAGUGGAGGGGGGGG [C20U C46G] 0.815

Dear colleague, please send me the reported self-cleavage for AACACUGCCAAUGCCAGUCCCAAGCCCGGAUAAAAGUUGAGGGGGCGG [G16A G38U] when you can. 0.656

Specify measured self-cleavage for CACACUGCCAAUGCCGGUCCCAAGCCCGAAUAAAAGUGGAGGGGGCGG [A1C G29A] . 0.184

Supply reported self-cleavage belonging to this variant: AACACUGCCAAUGUCGGUCCCAAGCCCGUAUAAAAGUGGAGGGGGCGG [C14U G29U] 1.09

Using known records, supply self-cleavage for AACACUGCCAAUGCCGUUCACAAGCCCGGAUAAAAGUGGAGGGGGCGG [G17U C20A] 0.0851

Provide one value: measured self-cleavage of AACACUGCCAAUGCUGGUCCCAAGCCCGGAUAGAAGUGGAGGGGGCGG [C15U A33G] 0.802

Supply recorded self-cleavage for ACCACUGCCAAUGCAGGUCCCAAGCCCGGAUAAAAGUGGAGGGGGCGG [A2C C15A] here. 0.051

Entry AACACUGCCAAUGCCGGCCCCAAGCCCGGAUAAAAGUGGAGGGGGCCG [U18C G47C] needs its self-cleavage filled in; supply it. 0.162

Using known records, supply self-cleavage for AACAUUGCCAAUGCCGGUCCCAAGCCCGGAUAAAAGGGGAGGGGGCGG [C5U U37G] 0.432

Check the records and state self-cleavage for AACACGGCCAAGGCCGGUCCCAAGCCCGGAUAAAAGUGGAGGGGGCGG [U6G U12G] 0.343

Return value of self-cleavage for input ACCACUGCCAAUGCCGGUCCCAAGCCCGGUUAAAAGUGGAGGGGGCGG [A2C A30U] , no commentary. 0.0662

Kindly indicate its recorded self-cleavage. Item: AACACUGCCAAUGUCGGUCCCAAGCCCGGAUAAAAGUGGAGGGGGCGC [C14U G48C] 1.26

Give the reported self-cleavage for this variant. AACACUGCCAACGCCGGUCCCAAGCCCGGAUAAACGUGGAGGGGGCGG [U12C A35C] 1.08

Provide measured self-cleavage value, entry: AACACUGCCAAUGCCGGUUCCGAGCCCGGAUAAAAGUGGAGGGGGCGG [C19U A22G] 0.0788
